The origin of these recorded values is patent US20210115087A1.

Tested target: T1, GST-Shh (recombinant GST-fused human Sonic Hedgehog) (human, UniProt Q15465 24-197)
T1 construct: Expressed in E. coli BL21(DE3), Ni-NTA purified, immobilized on microtiter plates; also called GST-fused Shh; not shown: glutathione-S-transferase (GST) containing a poly-histidine tag, from expression vector pET42b (Novagen); N-terminal fus
Test summary: plate assay: immobilized GST-Shh, biotinylated peptide, HRP-streptavidin
*1 amine or outer side, *2 acyl side, *3 side chain or, on linkers, in order; H or OH if unused. Bridges are numbered along the chain shown (N, C = ends). The star is where a group is joined. L‑5 = linker -CH2S(CH2)2SCH2-, C(CSC[*:2])SC[*:1]; Biotin = O=C1N[C@H]2[C@H](CS[C@H]2CCCCC(=O)*)N1; L‑9 = linker -CH2SCH2CH=CHCH2SCH2-; L‑6 = linker -CH2S(CH2)3SCH2-; L‑4 = linker -CH2SCH2SCH2-
Below, each entry is listed with its recorded pKd.
// returns pKd (minus log10 of molar concentration), number only

GSGSTLSWCEAMDMCTD (N-terminal biotin; Cys5 and Cys11 crosslinked, by the printed MW 2121.41 with one of the isomeric linkers L-10, L-11, L-12 (drawings; probably L-11); C-terminal amide, it fits the xylene-type linkers) [BIOT-M5-S7 (as labelled in the KD table of Example 5)]	5.04
Biotin-GSGSTLSWCEAMDMCTD-NH2 (linker 9-15 via L‑4) [Biot-m5-s2]	5.47
Biotin-GSGSTLSWCEAMDMCTD-NH2 (linker 9-15 via L‑5) [Biot-m5-s3]	5.23
Biotin-GSGSTLSWCEAMDMCTD-NH2 (disulfide 9-15) [Biot-m5-s1]	5.77
Biotin-GSGSTLSWCEAMDMCTD-NH2 (linker 9-15 via L‑6) [Biot-m5-s4]	5.19

Incoming: Answer with the recorded pKd of Biotin-GSGSTLSWCEAMDMCTD-NH2 (linker 9-15 via L‑9) [BIOT-M5-S5 (as labelled in the KD table of Example 5)] only.
Outgoing: 5.96
